# System: dendritic
# procedure-summary: Activation of TCR in human immature dendritic cells assessed as increase in CD3epsilon phosphorylation
# Type: cell-based
Can you tell me Activity for the items I'm about to list?
Please state the value as a number alone, without comment.

Fill in reported Activity for this entry: `CCCCCCCCCCCCCCCCCCCCCCCCCC(=O)N[C@@H](CO[C@H]1O[C@H](CO)[C@H](O)[C@H](O)[C@H]1O)[C@H](O)[C@H](O)CCCCCCCCCCCCCC`
10.8

# return recorded Activity for entry `CCCCCCCCCCCCCCCCCCCCCCCCCC(=O)N[C@@H](CO[C@H]1O[C@H](CO)[C@H](O)[C@H](O)[C@H]1O)[C@H](O)[C@H](O)CCc1ccccc1`
17.3

Hello, please tell me recorded Activity for this one: `CCCCCCCCCCCCCC[C@@H](O)[C@@H](O)[C@H](CO[C@H]1O[C@H](CO)[C@H](O)[C@H](O)[C@H]1O)NC(=O)CCCCCCCc1ccccc1`
21.3

Quote Activity reported for `CCCCCCCCCCCCCCCCCCCCCCCCCC(=O)N[C@@H](CO[C@H]1O[C@H](CO)[C@H](O)[C@H](O)[C@H]1O)[C@H](O)[C@H](O)CCCCC` please.
12

----------
# procedure-summary: Induction of GM-CSF secretion in human CD161+ CD3+ NKT cells at 10 ug/ml after 18 hrs relative to basal level
# Format: functional
Answer each item with its documented Activity.
Returns: the value as a bare number; no unit string appended.

Name the recorded Activity of the item `CCCCCCCCCCCCCC[C@@H](O)[C@@H](O)[C@H](CO[C@H]1O[C@H](CO)[C@H](O)[C@H](O)[C@H]1O)NC(=O)CCCCCCCCCc1ccccc1` in your answer.
3.4

Fill in reported Activity for this entry: `CCCCCCCCCCCCCC[C@@H](O)[C@@H](O)[C@H](CO[C@H]1O[C@H](CO)[C@H](O)[C@H](O)[C@H]1O)NC(=O)CCCCCc1ccccc1`
5.6

Give a short answer stating reported Activity for `CCCCCCCCCCCCCCCCCCCCCCCCCC(=O)N[C@@H](CO[C@@H]1O[C@H](CO)[C@H](O)[C@H](OS(=O)(=O)[O-])[C@H]1O)[C@H](O)[C@H](O)CCCCCCCCCCCCCC.[Na+]` .
4.1

Dear colleague, please send me the reported Activity for `CCCCCCCCCCCCCCCCCCCCCCCCCC(=O)N[C@@H](CO[C@H]1O[C@H](CO)[C@H](O)[C@H](O)[C@H]1O)[C@H](O)[C@H](O)CCCCC` when you can.
4.7

Name the recorded Activity of the compound listed here: `CCCCCCCCCCCCCC[C@@H](O)[C@@H](O)[C@H](CO[C@H]1O[C@H](CO)[C@H](O)[C@H](O)[C@H]1O)NC(=O)CCCCCCCc1ccccc1`
6.7

Please report Activity for the following compound: `CCCCCCCCCCCCCC[C@@H](O)[C@@H](O)[C@H](CO[C@H]1O[C@H](CO)[C@H](O)[C@H](O)[C@H]1O)NC(=O)CCCc1ccccc1`
2.8

----------
# System: Mus musculus
# procedure-summary: Induction of IL3 secretion in BALB/c mouse serum at 2 ug, iv after 2 hrs relative to control
# Type: functional
Kindly supply the reported Activity values for the records listed here.

Specify measured Activity for CCCCCCCCCCCCCCCCCCCCCCCCCC(=O)N[C@@H](CO[C@H]1O[C@H](CO)[C@H](O)[C@H](O)[C@H]1O)[C@H](O)[C@H](O)CCCCCCCCCCCCCC [RGI-7000] .
3

Specify Activity for `CCCCCCCCCCCCCCCCCCCCCCCCCC(=O)N[C@@H](CO[C@H]1O[C@H](CO)[C@H](O)[C@H](O)[C@H]1O)[C@H](O)[C@H](O)CCc1ccccc1` and stop.
38.8

Identify measured Activity corresponding to `CCCCCCCCCCCCCCCCCCCCCCCCCC(=O)N[C@@H](CO[C@H]1O[C@H](CO)[C@H](O)[C@H](OS(=O)(=O)[O-])[C@H]1O)[C@H](O)[C@H](O)CCCCCCCCCCCCCC.[Na+]`
1.8

Consider the molecule `CCCCCCCCCCCCCCC[C@@H](O)[C@H](CO[C@H]1O[C@H](C(=O)O)[C@H](O)[C@H](O)[C@H]1O)NC(=O)CCCCCCCCCCCCC` and give its recorded Activity.
2.8

Quickly give me recorded Activity for `CCCCCCCCCCCCCC[C@@H](O)[C@@H](O)[C@H](CO[C@H]1O[C@H](CO)[C@H](O)[C@H](O)[C@H]1O)NC(=O)CCCCCCCc1ccccc1`
2.4

Please list Activity recorded for the molecule `CCCCCCCCCCCCCCCCCCCCCCCCCC(=O)N[C@@H](CO[C@H]1O[C@H](C(=O)O)[C@H](O)[C@H](O)[C@H]1O)[C@H](O)[C@H](O)CCCCCCCCCCCCCC`
10.4

State, in one line, measured Activity of `CCCCCCCCCCCCCC[C@@H](O)[C@@H](O)[C@H](CO[C@H]1O[C@H](CO)[C@H](O)[C@H](O)[C@H]1O)NC(=O)CCCCCCCCCCCCC`
1.5

Annotate the molecule `CCCCCCCCCCCCCC[C@@H](O)[C@@H](O)[C@H](CO[C@H]1O[C@H](CO)[C@H](O)[C@H](O)[C@H]1O)NC(=O)CCCCCCCCCCc1ccccc1` with its measured Activity.
1.9
